Test system: SUP-B15 Ph+ ALL cells
Assay: MTS assay, SUP-B15
Type: cell-based
Settings: Homo sapiens, SUP-B15
IC50 for assorted compounds
Response body: numeric value in µM, unit text excluded.

compound	subjectOfTest	readoutType	measuredValue
CC1=C(CO)C(=O)O[C@@H]([C@@H](C)C2CC[C@H]3[C@@H]4C[C@H]5O[C@]56[C@@H](O)C=CC(=O)[C@]6(CO)[C@H]4CC[C@]23C)C1 (stereo partly drawn) [Compound X001]	SUP-B15 Ph+ ALL cells	IC50	0.35
CC(=O)OCC1=C(C)C[C@H]([C@@H](C)C2CC[C@H]3[C@@H]4C[C@H]5O[C@]56[C@@H](OC(C)=O)C=CC(=O)[C@]6(COC(C)=O)[C@H]4CC[C@]23C)OC1=O (stereo partly drawn) [Compound X003, 4,19,27-triacetyl X001]	SUP-B15 Ph+ ALL cells	IC50	0.048

Let us move to another entry and its IC50.
### Prompt Looking for the measured IC50 of CC1=C(CO)C(=O)O[C@@H]([C@@H](C)[C@H]2CC[C@H]3[C@@H]4C[C@H]5O[C@]56[C@@H](O)C=CC(=O)[C@]6(C)[C@H]4CC[C@]23C)C1 [Withaferin A, reference compound] , can you help?
### Response 0.132

---

Tested on: squamous cell carcinoma of head and neck cells JMAR
Assay: MTS cell viability assay, JMAR
Format: cell-based
Details: Table 1, 72-hour treatment
readoutType: pIC50
Scale for pIC50: -log10 of concentration given in mol/L; no unit attached.

Worked set:
molecule	pIC50
CC1=C(CO)C(=O)O[C@@H]([C@@H](C)[C@H]2CC[C@H]3[C@@H]4C[C@H]5O[C@]56[C@@H](O)C=CC(=O)[C@]6(C)[C@H]4CC[C@]23C)C1 [Withaferin A, reference compound]	5.70
CC1=C(CO)C(=O)O[C@@H]([C@@H](C)C2CC[C@H]3[C@@H]4C[C@H]5O[C@]56[C@@H](O)C=CC(=O)[C@]6(CO)[C@H]4CC[C@]23C)C1 (stereo partly shown)	5.27
CC(=O)OCC1=C(C)C[C@H]([C@@H](C)C2CC[C@H]3[C@@H]4C[C@H]5O[C@]56[C@@H](OC(C)=O)C=CC(=O)[C@]6(CO)[C@H]4CC[C@]23C)OC1=O (stereo partly shown)	6.85

### Prompt Looking for the measured pIC50 of CC(=O)OCC1=C(C)C[C@H]([C@@H](C)C2CC[C@H]3[C@@H]4C[C@H]5O[C@]56[C@@H](OC(C)=O)C=CC(=O)[C@]6(COC(C)=O)[C@H]4CC[C@]23C)OC1=O (stereo partly shown) , can you help?
### Response 6.80

---

pIC50 for assorted molecules
Tested on: human melanoma SKMEL28 cells
Experiment: MTS cell viability assay, SKMEL28
Format: cell-based
Details: Homo sapiens, SK-MEL-28, Table 5
Scale for pIC50: -log10 of concentration given in mol/L; no unit attached.

molecule	subjectOfTest	pIC50
CC1=C(CO)C(=O)O[C@@H]([C@@H](C)[C@H]2CC[C@H]3[C@@H]4C[C@H]5O[C@]56[C@@H](O)C=CC(=O)[C@]6(C)[C@H]4[C@@H](O)C[C@]23C)C1 [Compound X004]	human melanoma SKMEL28 cells	5.52

Let us move to another entry and its pIC50.
### Prompt Looking for the measured pIC50 of CC1=C(CO)C(=O)O[C@@H]([C@@H](C)[C@H]2CC[C@H]3[C@@H]4C[C@H]5O[C@]56[C@@H](OC(=O)N(C)C)C=CC(=O)[C@]6(CO)[C@H]4CC[C@]23C)C1 [HFM-JA-403] , can you help?
### Response 5.64
